Measured half-life accompanies every entry in the list below.
Experimental protocol: Half life in rat liver microsomes
Format: ADME
Value kind: half-life (h)

* O=c1[nH]nc2c3c(cccc13)NC(c1ccc(CN3CCC3)cc1)C2c1ccc(F)cc1 (stereo unspecified) | 1.48
* CN(C)Cc1ccc(C2Nc3cc(F)cc4c(=O)[nH]nc(c34)C2c2ccc(F)cc2)cc1 (stereo unspecified) | 1.37
* Cn1ccnc1C1c2n[nH]c(=O)c3cccc(c23)NC1c1ccccc1 (stereo unspecified) | 1.48
* O=c1[nH]nc2c3c(cccc13)NC(c1ccc(CN3CCCC3)cc1)C2c1ccccc1 (stereo unspecified) | 0.133
* Cn1ncnc1C1c2n[nH]c(=O)c3cc(F)cc(c23)NC1c1ccc(F)cc1 (stereo unspecified) | 5.98
* Cn1ncnc1C1c2n[nH]c(=O)c3cccc(c23)NC1c1ccccc1 (stereo unspecified) | 6.9
* O=c1[nH]nc2c3c(cccc13)NC(c1ccc(CN3CCCC3)cc1)C2c1ccc(F)cc1 (stereo unspecified) | 1.48
* CN(C)Cc1ccc(C2Nc3cccc4c(=O)[nH]nc(c34)C2c2ccc(F)cc2)cc1 (stereo unspecified) | 0.733
* Cc1ccc(C2c3n[nH]c(=O)c4cccc(c34)NC2c2ccc(CN(C)C)cc2)cc1 (stereo unspecified) | 0.583
* CN(C)Cc1cccc(C2c3n[nH]c(=O)c4cccc(c34)NC2c2ccccc2)c1 (stereo unspecified) | 0.183
* CN(C)Cc1ccc(C2Nc3cc(F)cc4c(=O)[nH]nc(c34)C2c2ccccc2)cc1 (stereo unspecified) | 0.0833
* Cn1ccnc1C1c2n[nH]c(=O)c3cc(F)cc(c23)NC1c1ccccc1 (stereo unspecified) | 1.72
* O=c1[nH]nc2c3c(cccc13)NC(c1ccc(CN3CCC3)cc1)C2c1ccccc1 (stereo unspecified) | 0.133
* CN(C)Cc1ccc(C2Nc3cccc4c(=O)[nH]nc(c34)C2c2ccccc2)cc1 (stereo unspecified) | 0.2
* CN1CCN(Cc2ccc(C3Nc4cccc5c(=O)[nH]nc(c45)C3c3ccccc3)cc2)CC1 (stereo unspecified) | 0.317
* Cn1ncnc1C1c2n[nH]c(=O)c3cc(F)cc(c23)NC1c1ccccc1 (stereo unspecified) | 7.87
* CN(C)Cc1ccc(C2c3n[nH]c(=O)c4cccc(c34)NC2c2ccccc2)cc1 (stereo unspecified) | 0.1

The measurements presented in this section are drawn from ChEMBL document CHEMBL3763037.
